PROTOCOL_NOTES: Pharmacokinetic analysis following intravenous administration to beagle dogs
Assay type: in vivo
STUDY_CONDITIONS: male, dog, plasma; beagle dogs, IV infusion over 30 min, 0.5 mg/kg; read-out: Vss
MEASURED_PROPERTY: Vd (L/kg)
# number only, unit L/kg dropped from output

Request: I would be grateful if you could share the reported Vd for O=C(NCc1c(F)cc(F)cc1F)c1cn2c(c(O)c1=O)C(=O)N1[C@@H](C2)[C@H]2C[C@@H]1C(F)(F)C2 [Compound 98] .
Result: 0.16

Request: I would be grateful if you could share the reported Vd for O=C(NCc1c(F)cc(F)cc1F)c1cn2c(c(O)c1=O)C(=O)N1[C@H](C2)[C@H]2C[C@@H]1C(F)(F)C2 [Compound 83] .
Result: 0.38

Request: I would be grateful if you could share the reported Vd for O=C(NCc1c(F)cc(F)cc1F)c1cn2c(c(O)c1=O)C(=O)N1[C@H]3CC[C@H](C3)[C@H]1C2 [Compound 55] .
Result: 0.24

Request: I would be grateful if you could share the reported Vd for O=C(NCc1ccc(F)cc1F)c1cn2c(c(O)c1=O)C(=O)N1[C@H]3CC[C@H](C3)O[C@@H]1C2 [Compound 2] .
Result: 0.2

Request: I would be grateful if you could share the reported Vd for C[C@@H](NC(=O)c1cn2c(c(O)c1=O)C(=O)N1[C@H]3CC[C@H](C3)[C@@H]1C2)c1c(F)cc(F)cc1F [Compound 77] .
Result: 0.64

Request: I would be grateful if you could share the reported Vd for O=C(NCc1ccc(F)cc1F)c1cn2c(c(O)c1=O)C(=O)N1C(C2)O[C@@H]2CCC[C@H]1C2 (stereo partly shown) [Compound 8] .
Result: 0.87

Request: I would be grateful if you could share the reported Vd for O=C(NCc1c(F)cc(F)cc1F)c1cn2c(c(O)c1=O)C(=O)N1[C@H]3CC[C@H](C3)[C@@H]1C2 [Compound 41] .
Result: 0.11

Request: I would be grateful if you could share the reported Vd for O=C(NCc1ccc(F)cc1F)c1cn2c(c(O)c1=O)C(=O)N1[C@@H]3CC[C@@H](C3)O[C@H]1C2 [Compound 3] .
Result: 0.23

Request: I would be grateful if you could share the reported Vd for O=C(NCc1ccc(F)cc1F)c1cn2c(c(O)c1=O)C(=O)N1C(C2)O[C@H]2CCC[C@@H]1C2 (stereo partly shown) [Compound 7] .
Result: 1.2

Request: I would be grateful if you could share the reported Vd for O=C(NCc1c(F)cc(F)cc1F)c1cn2c(c(O)c1=O)C(=O)N1[C@H]3CC[C@H](C3)O[C@@H]1C2 [Compound 42] .
Result: 0.15
